biological target: MAP1LC3A, Q9H492; assay: median log2 fold change of GCK-ALFA target abundance (FLAG IP / Myc IP barcode read proportion) (log2 ratio); each designed protein is fused to an ALFA-tag nanobody in HEK293 cells to bring the named protein to FLAG-tagged glucokinase (GCK); Myc marks an untargeted standard; higher = target protein stabilised (more abundant); conditions: target protein: 3xFLAG-MCP-GCK-ALFA reporter; HEK293 landing pad (RPLP)
In all, about 2,300 sequences were measured (“median log2 fold change of GCK-ALFA target abundance (FLAG IP / Myc IP barcode read proportion)”: median about 0.095, lowest 2% from about -0.47 on). The sample holds the lowest values, similar sequences and a random draw of the others, so the mix is not that of the screen.
reported_property: median log2 fold change
Lab note: record the figure alone, no unit after it.

Consider the binder LC3A_3_1859 (protein) MEEIKKEIIELLKSLGRSEEVIEAAERLANLLIERGYKEALETLLEELKKLKDVSDEILLAMFEDLIEALETEDLSEEELIERIEEEARIALNDQEIEEL and give its measured median log2 fold change. 0.169

Quick one: median log2 fold change of LC3A_3_1855 (protein) MEEIIEEALKLLKELGRSEETIEAARKLLEALKERGFEEAAKVLLEELKKLKNVSDEDLLEMFNELLKALEEEDLNEEEAIELIKSEARVLLNAEEIEEL ? 0.224

Which measured median log2 fold change value corresponds to LC3A_free_8_2489 (protein) KSQELANLASDLLDELEEEVEKKAKELGASELDILDLSLLIGSTIAEAYSLSDESPEKIIEAVREGLEELIERAKEISEELAKKVKELSEKILKELEEKA ? 0.0352

Item LC3A_free_8_2464 (protein) ASQKLVDTIVAKLDELEKALVKKAKEEGKSRLDILELELEVGSAIAELISNVDASPEEILKTLKEDLKDIIKVAKEIGEEVAKLAKEKSKEILAEAEALI has what recorded median log2 fold change? -0.304

May I ask what median log2 fold change has been recorded for LC3A_28_1059 (protein) MSIEEELEEALEEAREAVERGEEALIELTIDEDATEEDVELVLETMEEIAELTKDLPRTTIVVDVDHKNKEEVTKLVSEKGDRLEKRYPNVTVIIALSEE ? -0.148

Quick check: median log2 fold change of LC3A_147_516 (protein) YKVTVEIDLLLKNSKELAEEMAEEIKEYLESKGYEVEVELEFEEDEDGTIFAKITITVKAETKEEAEKVANEVLEKIDELLEKYKDKILGALISVSIEEE ? -0.0638

Consider the binder shown here: LC3A_3_1875 (protein) MDEKIEETIELLKEAGASEETIEKFEEVAELLKERGYEEALETLIEEVKKLAGTSDEILLDFLEEVLEVLKTKDLSEEELIEEIKRIARLALNEAEIIEL What is its recorded median log2 fold change? 0.289

Need median log2 fold change, item LC3A_23_616 (protein) MYKVEIIVDIIVPKEEAEKVEKDLLETINKVLEKNKSKIKEYKIEVEKEELEDGTVLLTIKVTIIYDGNKEEAEELANELVSAIDKTAPDAVISAEVSKI -0.672

Entry LC3A_147_517 (protein) YLVEVEIDMLLKNSKELAEEIAKEIEERLKEKGYKVEVELEFEEDEDGTIFADITIKVEAETLEEAKEVANEILDIIDELLEKNKDKILGALISVSITKK : reported median log2 fold change = ? -0.778

Param item = LC3A_147_509 (protein) YIVEIDIDLLVKNKVEEVKEKFKEIVEELKKKGYEVELEIEEEKIDENTYYVKVKITIKAETKEEAEEAANLTLDLLDKLEEELKEDILGSLISVEITEA ; retrieve measured median log2 fold change. -0.0549

State the recorded median log2 fold change for this entry: LC3A_28_1107 (protein) SSVDEENAKALAEAEKAAAAGEPAVITITVKSTDTQEDIDKKIETMEKIAEILKDVKDAAIIIDLDGEIPQEYLDKLADKGEEIEKKYPNITVIIALDEE 0.154

median log2 fold change lookup needed for LC3A_141_383 (protein) MKKEFEMEATKETADEVFKFMEEVEKETLEMIKESGGKPVKMKVKITATNEKTGEVVEKEEEYIVTEENADLVADGIEIEVLSLLDRVGGKVKVKVTLES , thanks. 0.328

median log2 fold change lookup needed for LC3A_free_8_2444 (protein) STQKLVDEVTELLDEMEERVEEKAKELGLSELDILDLSLLIGSLIAEIISAVDKSIEEIRKIVEEDMEEIIEEARELSEEIAEIVEETKERILELIDEAE , thanks. -0.324

Which measured median log2 fold change value corresponds to LC3A_3_1723 (protein) MEKIKAEALAVLKAQGASPETIKAAEELLKALEEKGFLEAAKTLLEELKKLKGVSSEDLLAALKDLLYKVTNEDLSEEEVIEEIKREFSVLKSAKEIEEL ? 0.206

Recorded median log2 fold change of LC3A_141_370 (protein) KTVTFTKTFTNSSLDEVIAGMEELEKEVLAAHEKLGGGKVKVTVTVTIKNSKTGETKVIKEEFEADKETLEMIMEGVLIEAASARLTENANITVTVTLEA , please. -0.474

What median log2 fold change value was documented for this binder, LC3A_3_1420 (protein) MEEELERALEELREAGWSEETLEALREVVEALLERGAEEEARRVLELVLENKDISSEDLLEVLREVLELLKTPGVSPEEAVERLEELLRIARNEQEIEEL ? 0.3

Please report the recorded median log2 fold change for LC3A_3_1805 (protein) ADERIEALLEELRAAGASEETIAAAREVLTLLRERGYLEALETLIEGLRELLDAPDELRLDLLEDVLEYLETNDASEEEVTEFIKEEIRLARSESEIEEL . -0.0069
